From: ChEMBL document CHEMBL4513216

test_details: Toxicity liver stage against HepG2, at 10uM
Type: cell-based
Parameters: test concentration 10 uM, cell line HepG2-A16-CD81EGFP
condition_summary: human, HepG2-A16-CD81EGFP cells; read-out: INHIBITION
Listed here: items and their measured cytotoxicity at 10 µM.
# include the unit after the value

Requested field: cytotoxicity at 10 µM. Item: CN(C)C(=O)C1(C)CN(Cc2cn(C)c3ccccc23)CCO1 (stereo unspecified) 1.78%

Param item: `CC(C)NC(=O)Nc1ccc2c(c1)ncn2CC(=O)NCCN(C)C` -8.15%

Param item: `COC(=O)CNC(=O)c1cccc(C(=O)N(C)c2ccccc2)c1` 6.93%

More entries:
Requested field: cytotoxicity at 10 µM. Item: `CN1CC2(CCN(CCCOCc3ccccc3)CC2)OC1=O` 3.12%

Param item: `COCCCNC(=O)c1cc(C(C)C)nc(N2CCCCCC2)n1` 9.15%

Param item: `Cn1c2ncccc2c(=O)n1CC(=O)Nc1ccc(F)c(F)c1` 16.5%
